assay: AUC (0 to infinity) in rat at 10 mg/kg, po; format: ADME, organism-based; set-up: dose 10 mg/kg, route oral, time infinity; details: plasma

[
  {
    "mol_smiles": "CNCC[C@@H](c1ccc(Cl)c(Cl)c1)n1nnc(C)n1",
    "AUC(0-inf) (ng·h/mL)": 1790
  }
]

----------
experiment: AUC in rat at 10 mg/kg, po; type: ADME, organism-based; design: dose 10 mg/kg, route oral; conditions: plasma

[
  {
    "mol_smiles": "CNCC[C@@H](c1ccc(Cl)c(Cl)c1)n1nnc(C)n1",
    "units_text": "ng·h/mL",
    "AUC": 1280
  }
]

----------
assay: Tmax in rat at 10 mg/kg, po; assay type: ADME, organism-based; set-up: dose 10 mg/kg, route oral; conditions: in vivo

[
  {
    "mol_smiles": "CNCC[C@@H](c1ccc(Cl)c(Cl)c1)n1nnc(C)n1",
    "units_text": "min",
    "Tmax": 45
  }
]

----------
molecular target: Sodium-dependent noradrenaline transporter (Homo sapiens); test: Inhibition of norepinephrine reuptake at human NET expressed in MDCK cells
Sequence (P23975 whole entry): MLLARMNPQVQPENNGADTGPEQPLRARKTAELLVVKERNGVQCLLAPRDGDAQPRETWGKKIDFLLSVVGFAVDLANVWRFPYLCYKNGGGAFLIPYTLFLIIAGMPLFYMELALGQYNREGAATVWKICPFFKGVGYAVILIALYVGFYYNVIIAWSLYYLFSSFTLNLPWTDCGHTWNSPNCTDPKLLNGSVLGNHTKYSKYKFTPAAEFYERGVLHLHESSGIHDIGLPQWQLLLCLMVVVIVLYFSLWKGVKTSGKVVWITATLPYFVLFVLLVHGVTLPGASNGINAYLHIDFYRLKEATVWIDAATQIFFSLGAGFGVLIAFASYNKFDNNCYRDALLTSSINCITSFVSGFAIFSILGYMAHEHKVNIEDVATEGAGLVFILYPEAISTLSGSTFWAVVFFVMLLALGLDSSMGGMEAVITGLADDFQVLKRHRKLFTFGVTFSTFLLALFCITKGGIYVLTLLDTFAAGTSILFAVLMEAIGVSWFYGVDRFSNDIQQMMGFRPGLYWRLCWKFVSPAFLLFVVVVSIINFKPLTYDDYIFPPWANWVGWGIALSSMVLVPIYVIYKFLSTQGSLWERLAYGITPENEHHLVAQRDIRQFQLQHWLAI
Note to self: use Yes only for IC50 readings below 70 nM; a reading exactly at 70 nM still gets No.

[
  {
    "compound": "CNCC[C@@H](c1ccc(Cl)c(Cl)c1)n1nnc(C)n1",
    "classification": "Yes"
  },
  {
    "compound": "CN(C)CCC(c1ccc(Cl)c(Cl)c1)n1ncnn1 (racemic)",
    "classification": "No"
  },
  {
    "compound": "CNCCC(c1ccc2ccccc2c1)n1ncnn1 (racemic)",
    "classification": "Yes"
  },
  {
    "compound": "CN(C)CCC(c1ccc2ccccc2c1)n1ncnn1 (racemic)",
    "classification": "No"
  }
]

----------
test: Half life in rat at 10 mg/kg, po; format: ADME, organism-based; parameters: dose 10 mg/kg, route oral; settings: in vivo

[
  {
    "mol_smiles": "CNCC[C@@H](c1ccc(Cl)c(Cl)c1)n1nnc(C)n1",
    "half-life (h)": 5.48
  }
]

----------
target: Cytochrome P450 3A4 (Homo sapiens)
Sequence (P08684 whole entry): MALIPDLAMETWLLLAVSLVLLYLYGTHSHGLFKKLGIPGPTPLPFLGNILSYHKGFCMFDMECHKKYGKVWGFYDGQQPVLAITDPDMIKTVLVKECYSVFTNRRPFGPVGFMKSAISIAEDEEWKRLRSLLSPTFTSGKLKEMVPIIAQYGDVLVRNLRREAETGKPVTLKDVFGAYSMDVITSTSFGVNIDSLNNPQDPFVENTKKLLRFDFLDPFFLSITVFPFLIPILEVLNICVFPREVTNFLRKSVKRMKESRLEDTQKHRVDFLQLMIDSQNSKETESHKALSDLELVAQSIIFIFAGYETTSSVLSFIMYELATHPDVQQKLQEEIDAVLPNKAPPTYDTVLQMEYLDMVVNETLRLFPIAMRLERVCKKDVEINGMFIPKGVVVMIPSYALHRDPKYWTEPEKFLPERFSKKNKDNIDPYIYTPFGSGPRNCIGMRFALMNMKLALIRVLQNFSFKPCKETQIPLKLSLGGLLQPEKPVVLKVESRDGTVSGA
pIC50: −log10 of the molar value.
test_readout: pIC50

[
  {
    "mol_smiles": "CNCC[C@@H](c1ccc(Cl)c(Cl)c1)n1nnc(C)n1",
    "measured": "< 5.00"
  }
]

----------
target: Cytochrome P450 2C19 (Homo sapiens)
Sequence (P33261 whole entry): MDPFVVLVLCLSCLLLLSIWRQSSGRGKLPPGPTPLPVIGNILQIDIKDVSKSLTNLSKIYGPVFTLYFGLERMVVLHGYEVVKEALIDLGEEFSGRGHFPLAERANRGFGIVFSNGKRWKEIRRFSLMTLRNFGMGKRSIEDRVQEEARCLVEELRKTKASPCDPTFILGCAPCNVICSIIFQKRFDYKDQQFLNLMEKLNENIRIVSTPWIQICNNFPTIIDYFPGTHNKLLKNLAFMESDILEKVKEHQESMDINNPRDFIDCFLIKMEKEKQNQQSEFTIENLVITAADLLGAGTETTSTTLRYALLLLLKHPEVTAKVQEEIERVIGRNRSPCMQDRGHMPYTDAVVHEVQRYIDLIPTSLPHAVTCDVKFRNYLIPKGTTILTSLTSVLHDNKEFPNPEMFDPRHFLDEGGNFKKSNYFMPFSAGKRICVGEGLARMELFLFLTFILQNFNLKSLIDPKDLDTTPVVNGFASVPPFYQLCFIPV

[
  {
    "mol_smiles": "CNCC[C@@H](c1ccc(Cl)c(Cl)c1)n1nnc(C)n1",
    "IC50": "> 10 µM"
  }
]

----------
Target: Cytochrome P450 1A2 (Homo sapiens, UniProt P05177)
Sequence (P05177 whole entry): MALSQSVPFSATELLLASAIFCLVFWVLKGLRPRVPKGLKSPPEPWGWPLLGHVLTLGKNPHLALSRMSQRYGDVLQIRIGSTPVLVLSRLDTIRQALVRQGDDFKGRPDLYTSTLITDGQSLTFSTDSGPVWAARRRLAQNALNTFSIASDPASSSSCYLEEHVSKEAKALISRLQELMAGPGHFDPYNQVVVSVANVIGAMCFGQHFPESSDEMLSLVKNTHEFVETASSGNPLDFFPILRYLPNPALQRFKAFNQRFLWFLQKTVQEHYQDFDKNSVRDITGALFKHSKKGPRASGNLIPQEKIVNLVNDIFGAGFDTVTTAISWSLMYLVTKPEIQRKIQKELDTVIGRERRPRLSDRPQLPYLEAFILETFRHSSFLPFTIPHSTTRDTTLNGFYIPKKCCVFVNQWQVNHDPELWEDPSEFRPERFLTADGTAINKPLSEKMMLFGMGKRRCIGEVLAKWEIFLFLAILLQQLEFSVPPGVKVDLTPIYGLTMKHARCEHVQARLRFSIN
pIC50: −log10 of the molar value.

[
  {
    "mol_smiles": "CNCC[C@@H](c1ccc(Cl)c(Cl)c1)n1nnc(C)n1",
    "pIC50": "< 5.00"
  }
]
